Taken from patent US20260184815A1.

Reported ELISA (T/B) values for a set of binders
Target: T1, human plasma kallikrein (human, UniProt P03952 20-390; P03952 391-638)
T1 construct: also called pKal; Human pKal
T1 sequence (P03952 20-390, chain 1 of 2): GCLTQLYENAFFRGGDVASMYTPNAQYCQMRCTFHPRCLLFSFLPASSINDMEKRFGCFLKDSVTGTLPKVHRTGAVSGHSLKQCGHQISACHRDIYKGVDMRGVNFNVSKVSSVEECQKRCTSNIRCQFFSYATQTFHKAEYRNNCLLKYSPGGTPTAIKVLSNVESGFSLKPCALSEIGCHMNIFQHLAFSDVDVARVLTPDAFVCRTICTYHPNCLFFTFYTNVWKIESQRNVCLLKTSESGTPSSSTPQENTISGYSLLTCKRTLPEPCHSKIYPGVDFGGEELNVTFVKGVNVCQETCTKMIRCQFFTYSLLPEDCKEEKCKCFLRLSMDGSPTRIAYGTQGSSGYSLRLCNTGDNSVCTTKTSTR
T1 sequence (P03952 391-638, chain 2 of 2): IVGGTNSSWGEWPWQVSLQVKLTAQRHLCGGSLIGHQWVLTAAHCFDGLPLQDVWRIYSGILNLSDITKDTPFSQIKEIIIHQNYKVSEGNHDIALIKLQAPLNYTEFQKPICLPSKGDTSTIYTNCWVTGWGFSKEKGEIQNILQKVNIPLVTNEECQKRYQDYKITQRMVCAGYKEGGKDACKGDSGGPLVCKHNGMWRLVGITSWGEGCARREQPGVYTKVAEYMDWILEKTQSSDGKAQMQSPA
Assay: ELISA, biotinylated pKal signal over streptavidin background
Reply numerically in T/B, unit not repeated.

What value of measured ELISA (T/B) is listed for M9-C10 (Fab, V domains shown, HC as printed runs into CH1) VH: EVQLLESGGGLVQPGGSLRLSCAASGFTFSLYPMQWVRQAPGKGLEWVSSIGSSGGMTFYADSVKGRFTISRDNSKNTLYLQMNSLRAEDTAVYYCTREVGAAGFAFDIWGQGTMVTVSS VL: DIQMTQSPSSLSASVGDRVTITCRASQGISSYLNWYQQKPGNAPNLLIYGASSLQSGVPSRFSGSGSGTDFTLTISSLQPEDFATYYCQESYSTLFTFGPGTTVEIK ?
7.8

Proceeding to the next binder to report its ELISA (T/B).
What value of measured ELISA (T/B) is listed for M8-G09 (Fab, V domains shown, HC as printed runs into CH1) VH: EVQLLESGGGLVQPGGSLRLSCAASGFTFSLYEMLWVRQAPGKGLEWVSVIYPSGGYTDYADSVKGRFTISRDNSKNTLYLQMNSLRAEDMAVYYCARSFSGFGEIDYWGQGTLVTVSS VL: DIQMTQSPSSLSASVGDTVTITCRASQGVSYYLAWFQQKPGKAPKSLIYGASSLQSGVPSKFSGSGSGTVFTLTISSLQPDDFATYYCQQYNTYPPTFGQGTRLDIK ?
28.2
